Data provenance is patent US8022206B2.

Items are presented alongside their recorded IC50.
# system tested: MET (human) (Homo sapiens)
# Sequence (P08581 25-1390): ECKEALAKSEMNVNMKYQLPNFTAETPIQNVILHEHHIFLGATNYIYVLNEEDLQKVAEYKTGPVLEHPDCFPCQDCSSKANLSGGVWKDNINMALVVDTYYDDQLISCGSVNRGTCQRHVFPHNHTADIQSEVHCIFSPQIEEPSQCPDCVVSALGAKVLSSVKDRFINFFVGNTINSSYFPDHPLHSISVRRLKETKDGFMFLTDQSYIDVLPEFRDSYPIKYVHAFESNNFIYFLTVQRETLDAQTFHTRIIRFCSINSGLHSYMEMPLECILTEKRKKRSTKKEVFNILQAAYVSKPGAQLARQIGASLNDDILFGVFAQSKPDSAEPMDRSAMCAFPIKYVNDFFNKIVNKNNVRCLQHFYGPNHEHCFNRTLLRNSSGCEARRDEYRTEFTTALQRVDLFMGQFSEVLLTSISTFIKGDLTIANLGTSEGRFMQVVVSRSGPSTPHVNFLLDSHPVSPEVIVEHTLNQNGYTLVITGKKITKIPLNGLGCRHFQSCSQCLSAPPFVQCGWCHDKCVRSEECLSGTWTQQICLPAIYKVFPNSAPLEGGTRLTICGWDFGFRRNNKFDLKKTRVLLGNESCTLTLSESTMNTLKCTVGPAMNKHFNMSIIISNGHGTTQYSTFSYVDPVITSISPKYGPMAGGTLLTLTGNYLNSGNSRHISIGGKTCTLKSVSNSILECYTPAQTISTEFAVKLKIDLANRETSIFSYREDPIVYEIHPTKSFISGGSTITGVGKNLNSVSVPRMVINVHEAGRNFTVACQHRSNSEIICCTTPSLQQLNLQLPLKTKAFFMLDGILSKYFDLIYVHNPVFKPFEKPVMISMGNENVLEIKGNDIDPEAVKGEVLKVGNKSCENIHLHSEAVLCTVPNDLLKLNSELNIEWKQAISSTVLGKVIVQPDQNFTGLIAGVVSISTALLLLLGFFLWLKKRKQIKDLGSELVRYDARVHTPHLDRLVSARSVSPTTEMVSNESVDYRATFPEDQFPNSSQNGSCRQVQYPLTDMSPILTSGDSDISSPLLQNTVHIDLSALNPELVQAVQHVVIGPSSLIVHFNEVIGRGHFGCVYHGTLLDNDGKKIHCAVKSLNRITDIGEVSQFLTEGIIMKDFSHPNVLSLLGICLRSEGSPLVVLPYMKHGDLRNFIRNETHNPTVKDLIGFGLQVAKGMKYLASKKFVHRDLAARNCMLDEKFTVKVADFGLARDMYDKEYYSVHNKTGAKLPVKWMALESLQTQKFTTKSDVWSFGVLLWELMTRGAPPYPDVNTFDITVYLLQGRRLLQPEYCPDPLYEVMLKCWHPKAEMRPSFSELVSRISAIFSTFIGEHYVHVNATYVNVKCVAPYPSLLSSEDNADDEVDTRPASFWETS
# procedure summary: MET (human) AlphaScreen kinase assay, Km of ATP
# Assay type: biochemical
# test settings: AlphaScreen, Km of ATP; read-out: Met biochemical IC50

compound	system tested	IC50
C[C@@H](Oc1c(N)ncc2c(-c3cccc(C(=O)N4CCN(CCO)CC4)c3)coc12)c1c(Cl)ccc(F)c1Cl [Example 98]	MET (human) (Homo sapiens)	< 500 nM
C[C@@H](Oc1c(N)ncc2c(-c3cnn(C4CCNCC4)c3)c(C#CC(C)(C)O)oc12)c1c(Cl)ccc(F)c1Cl [Example 171]	MET (human) (Homo sapiens)	< 500 nM
C[C@@H](Oc1c(N)ncc2c(-c3ccc(C(=O)N4CCCCC4)cc3)coc12)c1c(Cl)ccc(F)c1Cl [Example 290]	MET (human) (Homo sapiens)	500 to 5000 nM
C[C@@H]1CN(Cc2cc(-c3coc4c(O[C@H](C)c5c(Cl)ccc(F)c5Cl)c(N)ncc34)cs2)C[C@H](C)N1 [Example 305]	MET (human) (Homo sapiens)	< 500 nM
C[C@@H]1CN(C(=O)N2CC=C(c3coc4c(O[C@H](C)c5c(Cl)ccc(F)c5Cl)c(N)ncc34)CC2)C[C@H](C)O1 [Example 30]	MET (human) (Homo sapiens)	500 to 5000 nM

**Q:** Query (compound): C[C@@H](Oc1c(N)ncc2c(C3=CC4CCC(C3)N4)coc12)c1c(Cl)ccc(F)c1Cl (stereo partly drawn) [Example 153] ; field requested: IC50
**A:** < 500 nM

**Q:** Query (compound): COc1ncc(-c2coc3c(O[C@H](C)c4c(Cl)ccc(F)c4Cl)c(N)ncc23)cn1 [Example 93] ; field requested: IC50
**A:** 500 to 5000 nM

**Q:** Query (compound): C[C@@H](Oc1c(N)ncc2c(-c3csc(C=O)c3)coc12)c1c(Cl)ccc(F)c1Cl [Example 302] ; field requested: IC50
**A:** 500 to 5000 nM

**Q:** Query (compound): COC(=O)N1CCC(n2cc(-c3coc4c(O[C@H](C)c5c(Cl)ccc(F)c5Cl)c(N)ncc34)cn2)CC1 [Example 274] ; field requested: IC50
**A:** 500 to 5000 nM

**Q:** Query (compound): C[C@@H](Oc1c(N)ncc2c(-c3ccc(C(=O)N4CCC(O)CC4)cc3)coc12)c1c(Cl)ccc(F)c1Cl [Example 296] ; field requested: IC50
**A:** 500 to 5000 nM

**Q:** Query (compound): C[C@@H](Oc1c(N)ncc2c(-c3cccc(C(=O)NCCN4CCOCC4)c3)coc12)c1c(Cl)ccc(F)c1Cl [Example 97] ; field requested: IC50
**A:** 500 to 5000 nM

**Q:** Query (compound): CC(Oc1c(N)ncc2c(-c3cnn(C4CCNCC4)c3)coc12)c1ccc2ccccc2c1 (stereo not drawn) [Example 432] ; field requested: IC50
**A:** 500 to 5000 nM

**Q:** Query (compound): CCNC(=O)c1csc(-c2coc3c(O[C@H](C)c4c(Cl)ccc(F)c4Cl)c(N)ncc23)c1 [Example 329] ; field requested: IC50
**A:** 500 to 5000 nM

**Q:** Query (compound): CC(Oc1c(N)ncc2c(-c3cnn(C4CCNCC4)c3)coc12)c1ccc(OC(F)(F)F)cc1 (stereo not drawn) [Example 355] ; field requested: IC50
**A:** 500 to 5000 nM

**Q:** Query (compound): C[C@@H](Oc1c(N)ncc2c(C3=CCN(C(=O)c4cnc[nH]4)CC3)coc12)c1c(Cl)ccc(F)c1Cl [Example 233] ; field requested: IC50
**A:** 500 to 5000 nM
